system: M. tuberculosis
Measured MIC values are reported for all entries that follow.

Some solved entries appear below for comparison.
>  <compound>
CO[C@H]1/C=C/O[C@@]2(C)Oc3c(C)c(O)c4c(O)c(c(/C=N/N5CCN(C)CC5)c(O)c4c3C2=O)NC(=O)/C(C)=C\C=C\[C@H](C)[C@H](O)[C@@H](C)[C@@H](O)[C@@H](C)[C@H](OC(C)=O)[C@@H]1C

>  <MIC>
0.06 to 0.5 µg/mL

$$$$
>  <compound>
NC(=O)c1cnccn1 [Pyrazinamide]

>  <MIC>
6 to 60 µg/mL

$$$$
>  <compound>
O=C(O)c1cn(C2CC2)c2cc(N3CCNCC3)c(F)cc2c1=O

>  <MIC>
0.5 to 1 µg/mL

$$$$
>  <compound>
CC1COc2c(N3CCN(C)CC3)c(F)cc3c(=O)c(C(=O)O)cn1c23 (stereo not shown)

>  <MIC>
0.5 to 2.5 µg/mL

$$$$
>  <compound>
NNC(=O)c1ccncc1

>  <MIC>
0.12 to 32 µg/mL

$$$$
>  <compound>
NCC[C@H](O)C(=O)N[C@@H]1C[C@H](N)[C@@H](O[C@H]2O[C@H](CN)[C@@H](O)[C@H](O)[C@H]2O)[C@H](O)[C@H]1O[C@H]1O[C@H](CO)[C@@H](O)[C@H](N)[C@H]1O

>  <MIC>
0.5 to 1 µg/mL

$$$$

Q) Check the records and state MIC for `CC[C@@H](CO)NCCN[C@@H](CC)CO`
A) 1 to 5 µg/mL

The reported measurements were obtained from patent US7119075B2.
